tested on: RL human follicular lymphoma cell line; assay: cytotoxicity on RL cancer line (MTT, IC50); details: read-out: RL cancer line IC50; 72 h incubation, MTT
Please respond with reported pIC50 for every item in the list.
Answer as the number alone; pIC50 is minus log10 of concentration in mol/L.

Value lookup for pIC50; key = O=C(Nc1ncnc2ncn(COCc3ccccc3)c12)c1cccc(-c2ccccc2)c1 4.44

And O=C(Nc1ncnc2c1ncn2COCc1ccccc1)c1cccc(-c2ccccc2)c1 ? 3.73

And O=S(=O)(Nc1ncnc2[nH]cnc12)c1ccc(-c2ccccc2)cc1 ? 3.71

And O=C(Nc1ncnc2ncn(Cc3ccccc3)c12)c1cccc(-c2ccccc2)c1 ? 4.22

###

molecular target: purified recombinant cN-II enzyme (Homo sapiens, UniProt P49902); assay: cN-II inhibition test (inorganic phosphate from IMP, Malachite green); format: biochemical; conditions: 200 μM compound; 0.1 μM cN-II, 100 μM IMP, pH 6.5, 37° C.
Sequence (P49902 whole entry): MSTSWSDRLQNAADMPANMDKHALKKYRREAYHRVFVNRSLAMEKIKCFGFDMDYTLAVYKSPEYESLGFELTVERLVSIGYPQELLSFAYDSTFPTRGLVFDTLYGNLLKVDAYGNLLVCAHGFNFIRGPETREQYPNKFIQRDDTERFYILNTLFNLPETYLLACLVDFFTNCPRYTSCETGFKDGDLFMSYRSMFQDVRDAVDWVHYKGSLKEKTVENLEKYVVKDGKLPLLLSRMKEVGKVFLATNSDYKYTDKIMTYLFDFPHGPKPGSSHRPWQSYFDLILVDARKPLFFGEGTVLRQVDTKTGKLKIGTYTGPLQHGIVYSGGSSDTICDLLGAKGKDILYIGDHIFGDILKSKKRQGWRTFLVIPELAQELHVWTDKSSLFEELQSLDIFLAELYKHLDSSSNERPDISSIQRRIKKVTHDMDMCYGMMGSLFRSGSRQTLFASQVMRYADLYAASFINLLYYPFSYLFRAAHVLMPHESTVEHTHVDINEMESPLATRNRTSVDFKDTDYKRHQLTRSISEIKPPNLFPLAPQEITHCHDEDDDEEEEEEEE
PROPERTY LABEL: Inhibition cN-II in vitro (200 μM)

Value lookup for Inhibition cN-II in vitro (200 μM); key = O=C(Nc1ncnc2ncn(Cc3ccccc3)c12)c1cccc(-c2ccccc2)c1 68 +/− 15%

And O=S(=O)(Nc1ncnc2[nH]cnc12)c1ccc(-c2ccccc2)cc1 ? 70 +/− 5%

And O=C(Nc1ncnc2c1ncn2COCc1ccccc1)c1cccc(-c2ccccc2)c1 ? 43 +/− 7%

And O=C(Nc1ncnc2ncn(COCc3ccccc3)c12)c1cccc(-c2ccccc2)c1 ? 50 +/− 2%

###

target: purified recombinant cN-II enzyme (Homo sapiens, UniProt P49902); assay: cN-II inhibition test (inorganic phosphate from IMP, Malachite green); assay type: biochemical; design: key: Strong; Medium; Weak; settings: cN-II
PROPERTY LABEL: Inhibition strength (Strong/Medium/Weak)

O=C(Nc1ncnc2ncn(COCc3ccccc3)c12)c1cccc(-c2ccccc2)c1 = M
O=C(Nc1ncnc2ncn(Cc3ccccc3)c12)c1cccc(-c2ccccc2)c1 = S
O=C(Nc1ncnc2c1ncn2COCc1ccccc1)c1cccc(-c2ccccc2)c1 = M
O=S(=O)(Nc1ncnc2[nH]cnc12)c1ccc(-c2ccccc2)cc1 = S
